All figures here come from patent US20180273635A1.

biological target: HER2 expressed on the surface of cells (human, UniProt P04626 23-1255); assay: cell-based or functional assay
# key: entry, value: increase in potency with respect to the WT, NCI-N87 cells
Numbers only here, please. The scale is fold.

>>> quantitative_result("Variant 14021 (antibody, name in Kabat numbering, V domains shown, also called v14021) VH: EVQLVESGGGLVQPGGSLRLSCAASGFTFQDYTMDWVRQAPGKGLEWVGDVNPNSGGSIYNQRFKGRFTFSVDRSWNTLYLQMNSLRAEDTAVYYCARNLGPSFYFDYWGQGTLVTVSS VL: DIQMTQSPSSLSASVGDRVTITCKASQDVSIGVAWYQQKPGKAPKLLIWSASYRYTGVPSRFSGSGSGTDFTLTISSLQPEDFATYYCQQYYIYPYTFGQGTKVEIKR")
4.6
>>> quantitative_result("Variant 14023 (antibody, name in Kabat numbering, V domains shown, also called v14023) VH: EVQLVESGGGLVQPGGSLRLSCAASGFTFQDYTMDWVRQAPGKGLEWVGDVNPNSGGSIYNQRFKGRFTFSVDRSWNTLYLQMNSLRAEDTAVYYCARNLGPWFYFDYWGQGTLVTVSS VL: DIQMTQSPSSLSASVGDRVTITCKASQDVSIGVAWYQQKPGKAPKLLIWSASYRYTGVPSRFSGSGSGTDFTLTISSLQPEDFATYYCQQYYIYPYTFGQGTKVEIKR")
3.6

Returns the measured increase in potency with respect to the WT, NCI-N87 cells for the input binder. Input: Variant 14018 (antibody, name in Kabat numbering, V domains shown, also called v14018) VH: EVQLVESGGGLVQPGGSLRLSCAASGFTFTDYTMDWVRQAPGKGLEWVGDVNPNSGGSIYNQRFKGRFTFSVDRSWNTLYLQMNSLRAEDTAVYYCARNLGPSFYFDYWGQGTLVTVSS VL: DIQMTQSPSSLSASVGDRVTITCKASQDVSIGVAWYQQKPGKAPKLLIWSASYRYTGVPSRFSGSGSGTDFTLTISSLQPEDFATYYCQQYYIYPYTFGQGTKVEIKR
4.3

Returns the measured increase in potency with respect to the WT, NCI-N87 cells for the input binder. Input: Variant 12471 (antibody, human IgG1, kappa, name in Kabat numbering, V domains shown, Kabat numbering; also called v12471; FSA version of v9996) VH: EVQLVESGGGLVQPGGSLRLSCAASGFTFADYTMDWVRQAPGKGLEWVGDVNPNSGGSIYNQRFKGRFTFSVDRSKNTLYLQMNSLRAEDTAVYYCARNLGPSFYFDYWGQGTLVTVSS VL: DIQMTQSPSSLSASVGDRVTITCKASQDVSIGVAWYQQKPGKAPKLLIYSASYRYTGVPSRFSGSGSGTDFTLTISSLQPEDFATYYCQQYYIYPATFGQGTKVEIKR
5.1
